Test System: MAGL (Mus musculus, UniProt O35678)
Construct: Proteomes (mouse brain membrane fraction or cell lysates); from tissue; host or cells: mouse brain membrane fraction (or cell lysates, not specified)
Sequence (O35678 whole entry): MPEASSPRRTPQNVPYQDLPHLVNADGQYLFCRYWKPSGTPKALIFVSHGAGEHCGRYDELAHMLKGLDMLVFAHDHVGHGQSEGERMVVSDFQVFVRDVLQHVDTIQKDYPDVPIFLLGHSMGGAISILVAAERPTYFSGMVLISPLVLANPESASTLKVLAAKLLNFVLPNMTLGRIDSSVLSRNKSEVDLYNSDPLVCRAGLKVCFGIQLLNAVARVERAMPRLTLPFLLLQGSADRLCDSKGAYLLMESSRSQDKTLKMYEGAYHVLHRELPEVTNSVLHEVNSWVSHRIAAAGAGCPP
Method Description: In vitro competitive activity-based protein profiling (gel-based, FP-Rh or HT-01 probe)
Assay type: biochemical
Experimental Setup: 1 μM inhibitor
Please provide measured inhibition at 1 µM for the entries that follow.

For this compound ( O=C(c1cnn(C(=O)N2CCN(Cc3ccc4c(c3)OCO4)CC2)c1)N1CCC1 [Example 86] ), measured inhibition at 1 µM is < 25%

For this compound ( O=C(N1CCN(Cc2ccc(C(F)(F)F)cc2N2CCCC2)CC1)n1cc(Cl)cn1 [Example 125] ), measured inhibition at 1 µM is > 75%

For this compound ( CS(=O)(=O)N1CCN(C(=O)n2cc(C(F)(F)F)cn2)CC1 [Example 150] ), measured inhibition at 1 µM is < 25%

For this compound ( Cc1cc(-c2ccccc2)ccc1CN1CCN(C(=O)n2cc(C(=O)N3CCC3)cn2)CC1 [Example 93] ), measured inhibition at 1 µM is > 75%

For this compound ( CC(=O)N1CCN(C(=O)n2cc(C#N)cn2)CC1 [Example 173] ), measured inhibition at 1 µM is < 25%

----------
Test System: ABHD6 (Mus musculus)
Construct: Proteomes (mouse brain membrane fraction or cell lysates); from tissue; host or cells: mouse brain membrane fraction (or cell lysates, not specified)
Sequence (Q8R2Y0 whole entry): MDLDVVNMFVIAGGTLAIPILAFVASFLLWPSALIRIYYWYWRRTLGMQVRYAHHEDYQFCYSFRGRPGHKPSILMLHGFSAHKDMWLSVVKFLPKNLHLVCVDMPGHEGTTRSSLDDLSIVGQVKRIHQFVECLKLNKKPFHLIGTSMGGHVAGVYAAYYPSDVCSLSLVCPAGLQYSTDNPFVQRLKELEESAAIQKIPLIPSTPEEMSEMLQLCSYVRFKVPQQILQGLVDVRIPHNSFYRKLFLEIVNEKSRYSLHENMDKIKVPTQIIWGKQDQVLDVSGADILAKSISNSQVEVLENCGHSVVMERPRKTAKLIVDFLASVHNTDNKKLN
Method Description: In vitro competitive activity-based protein profiling (gel-based, FP-Rh or HT-01 probe)
Type: biochemical
Experimental Setup: 10 μM inhibitor; read-out: % Inhibition at 10 μM, C = ABHD6
Value Kind: inhibition at 10 µM

For this compound ( N#Cc1cnn(C(=O)N2CCOCC2)c1 ), measured inhibition at 10 µM is > 75%

For this compound ( N#Cc1cnn(C(=O)NCc2ccc3ccccc3c2)c1 ), measured inhibition at 10 µM is < 25%

For this compound ( Cc1cnn(C(=O)N2CCCN(Cc3ccccc3)CC2)c1 ), measured inhibition at 10 µM is < 25%

For this compound ( O=C(N1CCN(C(c2ccc(Cl)cc2)c2ccc(Cl)cc2)CC1)n1cc(-c2ccc(C(F)(F)F)cc2)cn1 ), measured inhibition at 10 µM is > 75%

For this compound ( O=C(N1CCN(Cc2c(N3CCCC3)cccc2C(F)(F)F)CC1)n1cc(C(F)(F)F)cn1 ), measured inhibition at 10 µM is > 75%

For this compound ( O=C(c1cnn(C(=O)N2CCN(Cc3ccc4c(c3)OCO4)CC2)c1)N1CCCCC1 ), measured inhibition at 10 µM is > 75%

For this compound ( Cc1cnn(C(=O)N2CCCCC2)c1 ), measured inhibition at 10 µM is > 75%

For this compound ( O=C(N1CCN(c2cccc(N3CCOCC3)c2)CC1)n1cc(C(F)(F)F)cn1 ), measured inhibition at 10 µM is > 75%

For this compound ( COC(=O)c1cnn(C(=O)N2CCN(Cc3ccc4ccccc4c3)CC2)c1 ), measured inhibition at 10 µM is > 75%

For this compound ( CN(CCN(C)S(C)(=O)=O)C(=O)n1cc(Cl)cn1 ), measured inhibition at 10 µM is < 25%

For this compound ( Cc1cnn(C(=O)NCCCc2ccccc2)c1 ), measured inhibition at 10 µM is < 25%

For this compound ( O=C(c1cnn(C(=O)N2CCN(C(c3ccc(Cl)cc3)c3ccc(Cl)cc3)CC2)c1)N1CCC1 ), measured inhibition at 10 µM is > 75%

For this compound ( O=C(N1CCN(Cc2ccncc2)CC1)n1cc(-c2ccccc2)cn1 ), measured inhibition at 10 µM is > 75%

For this compound ( O=C(N1CCN(Cc2c(N3CCCC3)cccc2C(F)(F)F)CC1)n1cc(F)cn1 ), measured inhibition at 10 µM is > 75%

For this compound ( O=C(N1CCN(Cc2ccc(-c3ccccc3)cc2OCc2ccccc2)CC1)n1cc(Cl)cn1 ), measured inhibition at 10 µM is > 75%

For this compound ( O=C(N1CCCN(Cc2ccccc2)CC1)n1cc(Cl)cn1 ), measured inhibition at 10 µM is > 75%

For this compound ( O=C(N1CCCCC1)n1cc(-c2ccccc2)cn1 ), measured inhibition at 10 µM is > 75%

For this compound ( CN1CCN(C(=O)n2cc(C#N)cn2)CC1 ), measured inhibition at 10 µM is > 75%

For this compound ( O=C(c1cnn(C(=O)N2CCN(Cc3nccs3)CC2)c1)N1CCCC1 ), measured inhibition at 10 µM is > 75%

For this compound ( CS(=O)(=O)N1CCCN(C(=O)n2cc(C(F)(F)F)cn2)CC1 ), measured inhibition at 10 µM is > 75%

For this compound ( O=C(N1CCCC1)n1cc(-c2ccc(-c3ccccc3)cc2)cn1 ), measured inhibition at 10 µM is > 75%

For this compound ( CCN(Cc1cccc(OC)c1)C(=O)n1cc(Cl)cn1 ), measured inhibition at 10 µM is > 75%

For this compound ( O=C(N1CCN(c2ccccc2)CC1)n1cc(C(F)(F)F)cn1 ), measured inhibition at 10 µM is > 75%

For this compound ( CS(=O)(=O)N1CCCN(C(=O)n2cc(C#N)cn2)CC1 ), measured inhibition at 10 µM is > 75%

For this compound ( Cc1cc(N2CCN(C(=O)n3cc(C(F)(F)F)cn3)CC2)c2ccccc2n1 ), measured inhibition at 10 µM is > 75%

For this compound ( N#Cc1cnn(C(=O)N2CCN(Cc3ccc4ccccc4c3)CC2)c1 ), measured inhibition at 10 µM is > 75%

For this compound ( O=C(N1CCN(Cc2ccc(-c3ccccc3)cc2OCc2ccccc2)CC1)n1cc(C(F)(F)F)cn1 ), measured inhibition at 10 µM is > 75%

For this compound ( CN(CCN(C)C(=O)n1cc(Cl)cn1)C(=O)c1ccccc1 ), measured inhibition at 10 µM is < 25%

For this compound ( O=C(c1cnn(C(=O)N2CCN(Cc3ccncn3)CC2)c1)N1CCCC1 ), measured inhibition at 10 µM is > 75%

For this compound ( Cc1cnn(C(=O)N2CCN(Cc3ccccc3)CC2)c1 ), measured inhibition at 10 µM is > 75%

For this compound ( O=C(c1cnn(C(=O)N2CCN(Cc3cccnc3)CC2)c1)N1CCCC1 ), measured inhibition at 10 µM is > 75%

For this compound ( Cc1cc(-c2ccccc2)ccc1CN1CCN(C(=O)n2cc(-c3ccccc3)cn2)CC1 ), measured inhibition at 10 µM is > 75%

For this compound ( O=C(c1cnn(C(=O)N2CCN(Cc3nccs3)CC2)c1)N1CCOCC1 ), measured inhibition at 10 µM is > 75%

For this compound ( CC(C)(C)OC(=O)N1CCN(C(=O)n2cc(C#N)cn2)CC1 ), measured inhibition at 10 µM is > 75%

For this compound ( O=C(N1CCN(C(c2ccc(Cl)cc2)c2ccc(Cl)cc2)CC1)n1cc(-c2ccccc2C(F)(F)F)cn1 ), measured inhibition at 10 µM is > 75%

For this compound ( O=C(N1CCCC1)n1cc(-c2ccc(Cl)cc2)cn1 ), measured inhibition at 10 µM is > 75%

For this compound ( O=C(N1CCN(C(c2ccc(Cl)cc2)c2ccc(Cl)cc2)CC1)n1cc(C(F)(F)F)cn1 ), measured inhibition at 10 µM is > 75%

----------
Test System: ABHD6 (Mus musculus)
Construct: Proteomes (mouse brain membrane fraction or cell lysates); from tissue; host or cells: mouse brain membrane fraction (or cell lysates, not specified)
Method Description: In vitro competitive activity-based protein profiling (gel-based, FP-Rh or HT-01 probe)
Assay type: biochemical
Experimental Setup: mouse brain membrane fraction or cell lysates, 30 min preincubation at 37° C.; read-out: Mouse (IC50 value, nM) ABHD6
Value Kind: IC50

For this compound ( O=C(N1CCN(Cc2ccc(-c3ccccc3)cc2Cl)CC1)n1cc(C(F)(F)F)cn1 ), measured IC50 is 100 to 1000 nM

For this compound ( NC(=O)c1cnn(C(=O)N2CCN(Cc3cccc(Oc4ccccc4)c3)CC2)c1 ), measured IC50 is < 100 nM

For this compound ( O=C(N1CCN(Cc2cccc(F)c2)CC1)n1cc(C(F)(F)F)cn1 ), measured IC50 is < 100 nM

For this compound ( O=C(NC1CC1)c1cnn(C(=O)N2CCN(C(c3ccc(Cl)cc3)c3ccc(Cl)cc3)CC2)c1 ), measured IC50 is 100 to 1000 nM

For this compound ( O=C(N1CCCCC1)n1cc(C(F)(F)F)cn1 ), measured IC50 is 100 to 1000 nM

----------
Please provide measured inhibition at 1 µM for the entries that follow.
Test System: MAGL (Mus musculus)
Construct: Proteomes (mouse brain membrane fraction or cell lysates); from tissue; host or cells: mouse brain membrane fraction (or cell lysates, not specified)
Method Description: In vitro competitive activity-based protein profiling (gel-based, FP-Rh or HT-01 probe)
Type: biochemical
Experimental Setup: 1 μM inhibitor

For this compound ( CCN(Cc1ccccc1C)C(=O)n1cc(Cl)cn1 ), measured inhibition at 1 µM is < 25%

For this compound ( N#Cc1cnn(C(=O)NCCCc2ccccc2)c1 ), measured inhibition at 1 µM is < 25%

For this compound ( CCN(Cc1cccc(Cl)c1)C(=O)n1cc(Cl)cn1 ), measured inhibition at 1 µM is 25 to 75%

For this compound ( O=C(N1CCN(Cc2ccc(Oc3ccccc3)cc2)CC1)n1cccn1 ), measured inhibition at 1 µM is > 75%

For this compound ( Cc1cc(-c2ccccc2)ccc1CN1CCN(C(=O)n2cc(Cl)cn2)CC1 ), measured inhibition at 1 µM is > 75%

For this compound ( N#Cc1cnn(C(=O)N2CCN(c3ccccc3)CC2)c1 ), measured inhibition at 1 µM is > 75%

For this compound ( O=C(c1cnn(C(=O)N2CCN(Cc3ccc4c(c3)OCO4)CC2)c1)N1CCCC1 ), measured inhibition at 1 µM is < 25%

For this compound ( CC(=O)N1CCCN(C(=O)n2cc(C(F)(F)F)cn2)CC1 ), measured inhibition at 1 µM is < 25%

For this compound ( Cc1cnn(C(=O)N2CCN(Cc3ccc4ccccc4c3)CC2)c1 ), measured inhibition at 1 µM is > 75%

For this compound ( Cc1ccccc1-c1cnn(C(=O)N2CCN(Cc3c(N4CCCC4)cccc3C(F)(F)F)CC2)c1 ), measured inhibition at 1 µM is < 25%
